- measurement-target: Human PI3K gamma (Homo sapiens, UniProt P48736)
- Construct: His (N); host or cells: SF9 insect cells (baculovirus)
- Sequence (P48736 whole entry): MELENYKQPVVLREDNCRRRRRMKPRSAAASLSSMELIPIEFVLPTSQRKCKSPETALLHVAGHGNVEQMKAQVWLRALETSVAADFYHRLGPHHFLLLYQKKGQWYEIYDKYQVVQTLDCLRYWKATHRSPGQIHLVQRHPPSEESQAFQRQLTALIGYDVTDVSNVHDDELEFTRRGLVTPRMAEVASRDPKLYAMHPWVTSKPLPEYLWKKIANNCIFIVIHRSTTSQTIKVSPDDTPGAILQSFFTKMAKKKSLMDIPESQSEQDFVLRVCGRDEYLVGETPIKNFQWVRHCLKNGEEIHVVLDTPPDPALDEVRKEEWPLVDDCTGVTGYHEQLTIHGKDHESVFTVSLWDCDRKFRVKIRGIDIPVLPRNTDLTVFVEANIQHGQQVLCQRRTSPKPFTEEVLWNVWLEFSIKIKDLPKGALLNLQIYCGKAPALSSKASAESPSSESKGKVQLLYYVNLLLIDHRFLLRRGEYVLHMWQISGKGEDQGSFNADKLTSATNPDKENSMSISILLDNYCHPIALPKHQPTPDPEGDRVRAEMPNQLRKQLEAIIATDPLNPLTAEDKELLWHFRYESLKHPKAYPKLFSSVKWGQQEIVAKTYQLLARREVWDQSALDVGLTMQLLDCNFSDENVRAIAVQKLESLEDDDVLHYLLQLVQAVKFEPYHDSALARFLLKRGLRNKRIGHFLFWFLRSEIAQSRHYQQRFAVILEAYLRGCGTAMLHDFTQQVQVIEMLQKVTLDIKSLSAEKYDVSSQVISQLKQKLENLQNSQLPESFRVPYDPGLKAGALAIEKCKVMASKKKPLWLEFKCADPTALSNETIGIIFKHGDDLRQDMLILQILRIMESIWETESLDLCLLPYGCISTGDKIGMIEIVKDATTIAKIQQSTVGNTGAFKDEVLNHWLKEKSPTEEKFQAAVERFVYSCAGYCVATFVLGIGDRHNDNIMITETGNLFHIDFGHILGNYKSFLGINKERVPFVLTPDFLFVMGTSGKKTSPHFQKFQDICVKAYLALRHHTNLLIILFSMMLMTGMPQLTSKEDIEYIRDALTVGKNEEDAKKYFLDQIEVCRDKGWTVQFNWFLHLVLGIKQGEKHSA
- procedure-text: Human PI3K gamma enzyme assay (HTRF)
- Assay type: biochemical
- cond: concentration not given; b1389 states 1.0 μM for PI3K δ and γ; read-out: p110 gamma Percent Inhibition
Label Not satisfied if inhibition at 1 µM falls below 20%; label Satisfied in every other case.

molecule | assigned-class
CC(c1ccc(Cl)c(Cl)c1)c1nc(N2CCOCC2)sc1C(=O)O (centres unmarked) | Satisfied
O=C(O)c1sc(N2CCOCC2)c(F)c1Cc1ccc(Cl)c(Cl)c1 | Satisfied
CCN(CC)C(c1ccc(Cl)cc1)c1cc(-c2ccnc(Cl)c2)sc1-c1nnc[nH]1 (centres unmarked) | Not satisfied
CC(=O)Nc1cc(-c2cc([C@@H](c3ccc(Cl)cc3)N(C)C)c(-c3nnc[nH]3)s2)ccn1 (single isomer, unassigned) | Satisfied
CC(=O)Nc1cc(-c2nc(Cc3ccc4ccccc4c3)c(C(=O)O)s2)ccn1 | Satisfied
OC(c1ccc(-c2ccncc2)cc1)c1cc(-c2ccncc2)sc1-c1nnc[nH]1 (centres unmarked) | Not satisfied
Cc1ccc(C(O)c2cc(-c3ccncc3)sc2-c2nnc[nH]2)s1 (centres unmarked) | Not satisfied
CC(=O)Nc1cc(-c2sc(-c3nnc[nH]3)c(C(c3ccc(Cl)cc3)N3CCNCC3)c2C#N)ccn1 (centres unmarked) | Not satisfied

###

- measurement-target: Human PI3K gamma (Homo sapiens)
- Construct: His (N); host or cells: SF9 insect cells (baculovirus)
- procedure-text: Human PI3K gamma enzyme assay (HTRF)
- Format: biochemical
- cond: concentration not given; b1389 states 1.0 μM for PI3K δ and γ
Returns: string. Value is true (1) if measured p110 gamma Percent Inhibition is below 20%, and false (0) if it is greater than or equal to it.

compound | assigned-class
OC(c1cc(-c2ccncc2)sc1-c1nnc[nH]1)c1c(F)ccc2ccccc12 (stereo not shown) [Compound 203] | true (1)
N#Cc1c(N2CCOCC2)sc(C(=O)O)c1C(CCO)c1ccc2ccccc2c1 (stereo not shown) [Compound 313] | false (0)
COc1cc(C(O)c2cc(-c3ccnc(C)c3)sc2-c2nnc[nH]2)c(F)cc1Cl (stereo not shown) [Compound 285] | true (1)
N#Cc1c(N2CCOCC2)sc(C(=O)O)c1C(CCF)c1ccc2ccccc2c1 (stereo not shown) [Compound 322] | false (0)
NCc1c[nH]c(-c2sc(-c3ccncc3)nc2Cc2ccc(Cl)cc2)n1 | true (1)
CC(=O)Nc1cc(-c2cc(C(c3ccc(Cl)cc3)N3CCC[C@H]3CO)c(-c3nnc[nH]3)s2)ccn1 (single isomer, unassigned) [Compound 192] | true (1)
CC(=O)Nc1cc(-c2cc(C(c3ccc(Cl)cc3)N(C)C3CNC3)c(-c3nnc[nH]3)s2)ccn1 (stereo not shown) | false (0)
CN(C)C(c1ccc(Cl)c(Cl)c1)c1c(C(=O)O)sc(N2CCOCC2)c1C#N (stereo not shown) [Compound 336] | true (1)
N#Cc1c(N2CCOCC2)sc(C(=O)O)c1C(F)c1ccc2ccccc2c1 (stereo not shown) | false (0)
COc1cc(C(O)c2cc(-c3ccnc(Cl)c3)sc2-c2nnc[nH]2)c(F)cc1Cl (stereo not shown) [Compound 278] | false (0)

###

- measurement-target: Human PI3K alpha (Homo sapiens)
- Construct: His (N); host or cells: SF9 insect cells (baculovirus)
- Sequence (P42336 whole entry): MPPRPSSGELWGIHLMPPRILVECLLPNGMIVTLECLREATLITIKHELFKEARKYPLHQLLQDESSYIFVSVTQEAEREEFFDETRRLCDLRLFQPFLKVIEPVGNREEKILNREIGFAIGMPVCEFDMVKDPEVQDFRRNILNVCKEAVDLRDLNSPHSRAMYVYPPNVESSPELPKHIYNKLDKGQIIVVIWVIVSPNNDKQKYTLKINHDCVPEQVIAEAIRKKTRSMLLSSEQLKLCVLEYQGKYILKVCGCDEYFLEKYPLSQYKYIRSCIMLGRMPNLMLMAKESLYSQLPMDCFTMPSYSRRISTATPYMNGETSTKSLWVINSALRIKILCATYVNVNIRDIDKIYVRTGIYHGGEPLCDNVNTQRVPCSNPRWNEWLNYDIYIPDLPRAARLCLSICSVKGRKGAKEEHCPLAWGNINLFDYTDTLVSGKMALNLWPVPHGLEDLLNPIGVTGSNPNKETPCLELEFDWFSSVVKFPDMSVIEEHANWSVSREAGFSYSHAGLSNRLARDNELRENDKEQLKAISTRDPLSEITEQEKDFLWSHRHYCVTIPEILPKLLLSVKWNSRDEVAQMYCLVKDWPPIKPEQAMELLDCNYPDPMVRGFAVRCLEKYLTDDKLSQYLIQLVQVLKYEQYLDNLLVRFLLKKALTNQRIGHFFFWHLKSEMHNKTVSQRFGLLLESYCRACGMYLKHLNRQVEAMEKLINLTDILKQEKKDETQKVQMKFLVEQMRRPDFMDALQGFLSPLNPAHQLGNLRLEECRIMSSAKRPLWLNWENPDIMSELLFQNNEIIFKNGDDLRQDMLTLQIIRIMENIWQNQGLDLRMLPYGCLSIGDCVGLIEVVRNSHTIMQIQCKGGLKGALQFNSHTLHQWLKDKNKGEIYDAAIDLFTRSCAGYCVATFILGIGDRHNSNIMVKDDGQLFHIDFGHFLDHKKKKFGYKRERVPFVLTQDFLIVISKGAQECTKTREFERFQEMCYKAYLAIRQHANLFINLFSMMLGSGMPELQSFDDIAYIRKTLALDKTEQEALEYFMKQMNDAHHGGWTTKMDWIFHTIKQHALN
- Sequence (P27986 whole entry partner): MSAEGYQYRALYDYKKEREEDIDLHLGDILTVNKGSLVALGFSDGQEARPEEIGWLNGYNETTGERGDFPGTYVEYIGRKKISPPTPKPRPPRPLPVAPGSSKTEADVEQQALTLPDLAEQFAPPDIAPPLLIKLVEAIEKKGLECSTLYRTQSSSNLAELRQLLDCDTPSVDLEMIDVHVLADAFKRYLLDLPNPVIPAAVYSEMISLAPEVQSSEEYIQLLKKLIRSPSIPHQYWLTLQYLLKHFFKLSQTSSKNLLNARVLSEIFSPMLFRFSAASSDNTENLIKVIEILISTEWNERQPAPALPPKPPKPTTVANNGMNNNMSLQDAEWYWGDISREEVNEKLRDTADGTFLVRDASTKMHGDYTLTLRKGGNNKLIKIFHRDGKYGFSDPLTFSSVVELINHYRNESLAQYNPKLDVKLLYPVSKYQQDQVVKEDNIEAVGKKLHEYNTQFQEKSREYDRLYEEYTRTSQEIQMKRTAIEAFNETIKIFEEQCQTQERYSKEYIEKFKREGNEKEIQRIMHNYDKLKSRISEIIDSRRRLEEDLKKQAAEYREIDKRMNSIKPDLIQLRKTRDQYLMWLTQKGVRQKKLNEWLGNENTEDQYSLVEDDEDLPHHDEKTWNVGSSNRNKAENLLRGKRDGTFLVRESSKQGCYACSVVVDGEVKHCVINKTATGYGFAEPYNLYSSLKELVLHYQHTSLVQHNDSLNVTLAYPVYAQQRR
- procedure-text: Human PI3K alpha enzyme assay (HTRF)
- Format: biochemical
- cond: concentration not given; b1387 states 1.1 μM for PI3K α and β; read-out: p110 alpha Percent Inhibition
attribute-measured: inhibition at 1.1 µM (%)

compound | attribute-measured | result-value
Nc1nccc(-c2sc(-c3ccncc3)nc2Cc2ccc(Cl)cc2)n1 | inhibition at 1.1 µM | 2
CC(=O)Nc1cc(-c2nc(Cc3ccc4ccccc4c3)c(-c3nnc[nH]3)s2)ccn1 | inhibition at 1.1 µM | 57
OC(c1ccccc1F)c1cc(-c2ccncc2)sc1-c1nnc[nH]1 (centres unmarked) | inhibition at 1.1 µM | 29
CC(c1ccc2ccccc2c1)c1nc(N2CCOCC2)sc1C(=O)O (centres unmarked) | inhibition at 1.1 µM | 21
NC(=O)c1sc(N2CCOCC2)nc1Cc1ccc2ccccc2c1 | inhibition at 1.1 µM | 21
CC(=O)Nc1cc(-c2cc(C(c3ccc(Cl)cc3)N3CCNCC3)c(-c3nnc[nH]3)s2)ccn1 (centres unmarked) | inhibition at 1.1 µM | 79
CC(C)(C)[S+]([O-])NC(c1ccc2ccccc2c1)c1c(C(=O)O)sc(N2CCOCC2)c1C#N (centres unmarked) | inhibition at 1.1 µM | 66
CC(=O)Nc1cc(-c2cc(C(c3ccc(Cl)cc3)N3CCN(CC(F)(F)F)CC3)c(-c3nnc[nH]3)s2)ccn1 (centres unmarked) | inhibition at 1.1 µM | 55
N#Cc1c(N2CCOCC2)sc(C(=O)O)c1C(CCO)c1ccc(Cl)c(Cl)c1 (centres unmarked) | inhibition at 1.1 µM | 71
COc1cc(C(O)c2cc(-c3ccncc3)sc2-c2nnc[nH]2)c(F)cc1Cl (centres unmarked) | inhibition at 1.1 µM | 19
CC(=O)NC(c1ccc(Cl)cc1)c1c(C(=O)O)sc(N2CCOCC2)c1C#N (centres unmarked) | inhibition at 1.1 µM | 19
Cc1ccc(F)c(C(O)c2cc(-c3ccncc3)sc2-c2nnc[nH]2)c1 (centres unmarked) | inhibition at 1.1 µM | 47
COC(=O)NC(c1ccc2ccccc2c1)c1c(C(=O)O)sc(N2CCOCC2)c1C#N (centres unmarked) | inhibition at 1.1 µM | 89
O=C(O)c1sc(N2CCOCC2)nc1Cc1cc2cc(Br)ccc2s1 | inhibition at 1.1 µM | 99
Oc1cc(-c2sc(-c3ccncc3)nc2Cc2ccc(Cl)cc2)[nH]n1 | inhibition at 1.1 µM | 20
CS(=O)(=O)NC(c1ccc(Cl)cc1)c1c(C(=O)O)sc(N2CCOCC2)c1C#N (centres unmarked) | inhibition at 1.1 µM | 20
COc1ccc(C(O)c2cc(-c3ccncc3)sc2-c2nnc[nH]2)cc1Cl (centres unmarked) | inhibition at 1.1 µM | 26
